tested on: P388 leukemia ip, CD2F1 mice, survival T/C; test: NCI In Vivo Anticancer Drug Screen. Data for tumor model P388 Leukemia (intraperitoneal) in CD2F1 (CDF1) mice; conditions: endpoint: median survival time; dose: 200.0 mg/kg/injection; schedule: Q01DX001 (ip); vehicle: saline with Tween-80; higher = longer survival
Toxic doses and inconclusive results are not listed.
property name: T/C

Worked examples follow.
- compound: "CCCCCCC(CCC1CCCCC1)C(=O)O (configuration not stated)"
  T/C: "100 % of control"
- compound: "COCNC(=O)N=C1N(COC)COCN1COC"
  T/C: "106 % of control"

# map each compound to its T/C
1. CCC(c1ccc(OC)cc1)C(NCC(=O)N/N=C1\C[C@@H]2[C@H](CC[C@]3(C)[C@@H](O)CC[C@@H]23)c2c(C)cc(O)cc21)c1ccc(OC)cc1 (some centres not stated)
2. COc1ccc(/C=C/C(CCN(C)C)=N/NC(=S)Nc2ccc(Br)cc2)cc1
3. CCOc1ccccc1C(=O)Nc1cc(C)nn1-c1ccccc1
4. CCN(CC)C(=O)Nc1ccc(O)c(C(=O)O)c1
5. CCOC(=O)/C(C#N)=C/C=C1/C=CC=CN1N=C(SC)SC

# output
1: 107 % of control; 2: 96 % of control; 3: 100 % of control; 4: 100 % of control; 5: 86 % of control

###

system: P388 leukemia ip, CD2F1 mice, survival T/C; experiment: NCI In Vivo Anticancer Drug Screen. Data for tumor model P388 Leukemia (intraperitoneal) in CD2F1 (CDF1) mice; details: endpoint: median survival time; dose: 12.5 mg/kg/injection; schedule: Q01DX009 (ip); vehicle: Klucel (hydroxypropylcellulose) (HPC); higher = longer survival
Inconclusive results and toxic doses are left out.
Provide the recorded T/C for the entries that follow.

- smiles entry: "Cc1cc(C)n2nc(CC#N)c(C#N)c2n1"
  T/C: "109 % of control"
- smiles entry: "CCN(CC)C(=O)S(=O)(=O)c1ccccc1"
  T/C: "106 % of control"

Notebook: `CN(C)c1ccc2c(Cl)cc(Cl)nc2c1` , T/C read as 109 % of control

###

system: P388 leukemia ip, CD2F1 mice, survival T/C; experiment: NCI In Vivo Anticancer Drug Screen. Data for tumor model P388 Leukemia (intraperitoneal) in CD2F1 (CDF1) mice; conditions: endpoint: median survival time; dose: 12.5 mg/kg/injection; schedule: Q01DX001 (ip); vehicle: saline with Tween-80; higher = longer survival
Toxic doses and inconclusive results are not listed. Peptide text beside a SMILES is read from it. * marks the point of attachment. Boc = CC(C)(C)OC(=O)*; OtBu = CC(C)(C)O*; NHNH2 = NN*
Provide the recorded T/C for the entries that follow.

- compound: "Ic1sc(I)c(I)c1I"
  T/C: "100 % of control"

# map each compound to its T/C
1. CCC(C)C(NC(=O)CNC(=O)OC(C)(C)C)C(=O)NC(C(=O)NC(CCC(=O)OC(C)(C)C)C(=O)NN)C(C)C (stereo not drawn) (Boc-GIVE(OtBu)-NHNH2; configuration not given here)
2. c1ccc(C2OCCN2c2ccccc2)cc1 (stereo not drawn)

# output
1: 100 % of control; 2: 107 % of control

###

test system: P388 leukemia ip, CD2F1 mice, survival T/C; experiment: NCI In Vivo Anticancer Drug Screen. Data for tumor model P388 Leukemia (intraperitoneal) in CD2F1 (CDF1) mice; settings: endpoint: median survival time; dose: 50.0 mg/kg/injection; schedule: Q01DX005 (ip); vehicle: Klucel (hydroxypropylcellulose) (HPC); higher = longer survival
Toxic doses and inconclusive results are not listed.
property name: T/C

Worked examples follow.
- compound: "O=C1N(c2ccccc2)N=C2CCCCCCCCCCC12O (stereo not drawn)"
  target of assay: "P388 leukemia ip, CD2F1 mice, survival T/C"
  property name: "T/C"
  reported: "93 % of control"
- compound: "COc1ccc2cc3[n+](cc2c1O)CCc1cc2c(cc1-3)OCO2"
  target of assay: "P388 leukemia ip, CD2F1 mice, survival T/C"
  property name: "T/C"
  reported: "111 % of control"
- compound: "CC(C)(C)OC(=O)NC(Cc1ccc(OCc2ccccc2)cc1)C(=O)ON1C(=O)CCC1=O (stereo not drawn)"
  target of assay: "P388 leukemia ip, CD2F1 mice, survival T/C"
  property name: "T/C"
  reported: "93 % of control"
- compound: "Cc1ccc(Nc2nnc(-c3ccc4c(c3)OCO4)o2)c(C)c1"
  target of assay: "P388 leukemia ip, CD2F1 mice, survival T/C"
  property name: "T/C"
  reported: "97 % of control"
- compound: "Cc1[nH]n(-c2cc(S(=O)(=O)O)ccc2Cl)c(=O)c1N=Nc1ccc(C(=O)Nc2ccc(S(=O)(=O)O)cc2)cc1"
  target of assay: "P388 leukemia ip, CD2F1 mice, survival T/C"
  property name: "T/C"
  reported: "99 % of control"

# map each compound to its T/C
1. COc1ccc(S(=O)(=O)N/N=C/c2cnc[nH]2)cc1
2. NC(=O)NC1CC1c1ccc(Cl)c(Cl)c1 (stereo not drawn)
3. Cc1cccc([B-]23OCC[N+]2(CNC(=O)c2ccccc2O)CCO3)c1 (stereo not drawn)
4. CC1(C)OC2C(COC(c3ccccc3)(c3ccccc3)c3ccccc3)OC(n3ccc(=O)[nH]c3=O)C2O1 (stereo not drawn)

# output
1. 97 % of control
2. 103 % of control
3. 105 % of control
4. 97 % of control

# map each compound to its T/C
1. Cc1cc(Cl)c2cc3c(cc2n1)OCO3
2. COc1cccc(C2OC3=C(Nc4ccc(Cl)cc4N3)C2=O)c1 (stereo not drawn)
3. CC(C)(S)[C@H]1NC(=O)NC1=O
4. NC1C(=O)NC(=O)NC1=O
5. Nc1nc(N)c(Cc2ccccn2)cc1Cc1ccccn1

# output
1: 106 % of control; 2: 93 % of control; 3: 99 % of control; 4: 96 % of control; 5: 98 % of control

# map each compound to its T/C
1. COc1c2c(cc3c1C(O)=CC(=O)C3=O)OCO2
2. CCC1(C(C)C)NC(=O)NC1=O (stereo not drawn)
3. CCN(CC)C1=C(c2ccccc2)C(=O)C1(C#N)C(C)(C)C (stereo not drawn)
4. CSC(=O)/N=C(\N)NC(=O)c1ccccc1

# output
104 % of control
106 % of control
98 % of control
95 % of control
